FYI, the data here is from patent US6545008B1.

Molecular target: proton pump (H+/K+-ATPase)
Construct: The gastric vesicle as an enzyme source was prepared by the same method as in the Experiment 1—1 of WO 94/14795
Experiment: Inhibition of proton pump (H+/K+-ATPase) activity, gastric vesicle enzyme source
Conditions: pH 6.4, 37° C., 30 min preincubation, linear regression over 5 concentrations, read-out: IC50, inhibitory effects on proton pump (H+/K+-ATPase) activity
Counter-ions that a name gives are not always drawn.
quantity_measured: IC50 (nM)
Note: unit nM is implicit; provide only the numeric part.

Some solved cases for reference:
1) Cc1cc(F)ccc1Nc1nc(C)c(C)c(N2CCc3cc(F)ccc3C2C)n1 (stereo not shown) [Example 17, hydrochloride]: 200
2) Cc1nc(Nc2ccc(F)cc2F)nc(N2CCc3ccc(F)cc3C2C)c1C (stereo not shown) [Example 8, hydrochloride]: 700

Reported IC50 for proton pump (H+/K+-ATPase), given Cc1nc(Nc2ccc(F)cc2)nc(N2CCc3ccccc3C2C)c1CF (stereo not shown) [Example 25, hydrochloride] ?
4100

Reported IC50 for proton pump (H+/K+-ATPase), given Cc1nc(Nc2ccc(F)cc2F)nc(N2CCc3ccccc3C2C)c1C (stereo not shown) [Example 2, hydrochloride] ?
3800

---

Target: proton pump (H+/K+-ATPase)
Construct: The gastric vesicle as an enzyme source was prepared by the same method as in the Experiment 1—1 of WO 94/14795
Assay: Inhibition of proton pump (H+/K+-ATPase) activity, gastric vesicle enzyme source
Settings: pH 6.4, 37° C., 30 min preincubation, linear regression over 5 concentrations, read-out: IC50, inhibitory effects on proton pump (H+/K+-ATPase) activity
Procedure: Test Example 1: Inhibition of proton pump (H^+/K^+-ATPase) activity The gastric vesicle as an enzyme source was prepared by the same method as in the Experiment 1—1 of WO 94/14795. Further, the inhibitory effect of proton pump activity was measured by the same method as in Experiment 1-2 of WO 94/14795. […] Thereafter the test tubes of each Group were placed at 37° C. for 30 minutes for the preincubation. […] The released inorganic phosphorous was measured by an automatic analyzer (Express 550, Corning). […]
pIC50: −log10 of the molar value. Structures can show the parent of a compound that is named as a salt.
Give 1 when the value for pIC50 is at least 6. Give 0 when it is less.

1. Cc1nc(Nc2ccc(F)c(F)c2)nc(N2CCc3ccccc3C2C)c1C (centres unmarked) [Example 1, hydrochloride]: 0
2. Cc1nc(Nc2ccccc2F)nc(N2CCc3ccc(F)cc3C2C)c1C (centres unmarked) [Example 11, hydrochloride]: 0
3. Cc1nc(Nc2ccc(F)cc2)nc(N2CCc3ccccc3C2CF)c1C (centres unmarked) [Example 26, hydrochloride]: 0

# check: pIC50 of Cc1cc(F)ccc1Nc1nc(C)c(C)c(N2CCc3ccc(F)cc3C2C)n1 (centres unmarked) [Example 6, hydrochloride] is greater than or equal to 6
1

---

Molecular target: proton pump (H+/K+-ATPase) (UniProt P19156)
Construct: The gastric vesicle as an enzyme source was prepared by the same method as in the Experiment 1—1 of WO 94/14795
Assay: Inhibition of proton pump (H+/K+-ATPase) activity, gastric vesicle enzyme source
Conditions: pH 6.4, 37° C., 30 min preincubation, linear regression over 5 concentrations, read-out: IC50, inhibitory effects on proton pump (H+/K+-ATPase) activity
Structures can show the parent of a compound that is named as a salt.
quantity_measured: IC50
Note: state the figure and append the unit.

Some solved cases for reference:
1. Cc1nc(Nc2ccccc2)nc(N2CCc3ccc(F)cc3C2C)c1C (stereo not shown) [Example 4, hydrochloride]: 1000 nM
2. Cc1nc(Nc2ccc(F)cc2F)nc(N2CCc3cc(F)ccc3C2C)c1C (stereo not shown) [Example 19, hydrochloride]: 1000 nM
3. Cc1nc(Nc2ccc(F)cc2)nc(N2CCc3cc(F)ccc3C2C)c1C (stereo not shown) [Example 14, hydrochloride]: 700 nM

Turning now to a further compound:
For the compound Cc1nc(Nc2ccc(Cl)cc2)nc(N2CCc3ccc(F)cc3C2C)c1C (stereo not shown) [Example 9, hydrochloride] , what IC50 is on record?
900 nM
